These measurements were taken from ChEMBL document CHEMBL4346727.

# assay.text: Neurotoxicity in ip dosed CD1 mouse and measured after 4 hrs by rotarod test
# Assay type: toxicity, organism-based
# condition.label: in vivo
Give measured MTC for each item. Keep answers brief.
Numeric only. Scale: mg/kg

Ask: Output measured MTC for this item: CN1CCN(CN2C(=O)NC(c3ccccc3)(c3ccccc3)C2=O)CC1
Reply: 100

Ask: Note MTC for the compound shown: CC(C)C1(C(C)C)NC(=O)N(CN2CCN(c3ccccc3F)CC2)C1=O
Reply: 300

Ask: For the compound O=C1NC(=O)C(c2ccccc2)(c2ccccc2)N1 [PHENYTOIN] , give its reported MTC.
Reply: 100

Ask: Please give the documented MTC of CC(C)C1(C(C)C)NC(=O)N(CN2CCN(c3ccc(F)cc3)CC2)C1=O
Reply: 300
